System: A549 lung cell carcinoma
assay.protocol: Relative colony forming efficiency (Example 17, Table 13)
Assay type: cell-based, human
condition.notes: averages of 2-8 determinations
Oligonucleotides are written 5' to 3', each unit as a sugar letter and its base; * is a phosphorothioate linkage, no mark a phosphodiester; rarer units and linkages stand in square brackets, end groups in braces. Plain capitals give the bases only. d = 2'-deoxy (DNA)
For each entry below, report its Reduced relative colony forming efficiency, A549 (% inhibition of colony forming ability) value.
Put your answer as a value accompanied by its unit after it.

Reduced relative colony forming efficiency, A549 (% inhibition of colony forming ability) recorded for this substance, GGCATCAGTCCTCGTTTCTT (antisense dG*dG*dC*dA*dT*dC*dA*dG*dT*dC*dC*dT*dC*dG*dT*dT*dT*dC*dT*dT) [AS-II-933-20] , is 53.52%

Reported Reduced relative colony forming efficiency, A549 (% inhibition of colony forming ability) for TGTAAACCCTCATCTCTGCT (antisense dT*dG*dT*dA*dA*dA*dC*dC*dC*dT*dC*dA*dT*dC*dT*dC*dT*dG*dC*dT) [AS-II-981-20] was 74.25%

Form field Reduced relative colony forming efficiency, A549 (% inhibition of colony forming ability), entry GCACGGGCGACC (antisense dG*dC*dA*dC*dG*dG*dG*dC*dG*dA*dC*dC) [AS-II-127-12] : 69.33%

The recorded Reduced relative colony forming efficiency, A549 (% inhibition of colony forming ability) for TCCTCGCGGTCTTGCTGGCC (antisense dT*dC*dC*dT*dC*dG*dC*dG*dG*dT*dC*dT*dT*dG*dC*dT*dG*dG*dC*dC) [AS-II-323-20] is 91.24%

Recorded Reduced relative colony forming efficiency, A549 (% inhibition of colony forming ability) (substance GGCTAAATCGCTCCACCAAG (chemistry not given here) [SEQ ID NO: 1, antisense oligonucleotide that hybridizes to the coding region of human ribonucleotide reductase R2 mRNA] ): 95.14%

GET /value?item= ACTGCCATTGTCACTGCTAT (antisense dA*dC*dT*dG*dC*dC*dA*dT*dT*dG*dT*dC*dA*dC*dT*dG*dC*dT*dA*dT) [AS-II-1581-20] &field=Reduced relative colony forming efficiency, A549 (% inhibition of colony forming ability) returns 90.55%

Measured Reduced relative colony forming efficiency, A549 (% inhibition of colony forming ability) of ACCCCTCACTCCAGCAGCCT (antisense dA*dC*dC*dC*dC*dT*dC*dA*dC*dT*dC*dC*dA*dG*dC*dA*dG*dC*dC*dT) [AS-II-110-20] : 89.38%

The substance identified as G*CG*AAG*CAG*AGC*GAG*CAGC*C (antisense dG*dCdG*dAdAdG*dCdAdG*dAdGdC*dGdAdG*dCdAdGdC*dC) [AS-II-163-20] registered its Reduced relative colony forming efficiency, A549 (% inhibition of colony forming ability) at 37.13%

Reduced relative colony forming efficiency, A549 (% inhibition of colony forming ability) for TATCTCTCCTCGGGTTTCAG (antisense dT*dA*dT*dC*dT*dC*dT*dC*dC*dT*dC*dG*dG*dG*dT*dT*dT*dC*dA*dG) [AS-II-549-20] is 30.57%

substance ATCGCCGCCGTG (antisense dA*dT*dC*dG*dC*dC*dG*dC*dC*dG*dT*dG) [AS-II-1775-12] , Reduced relative colony forming efficiency, A549 (% inhibition of colony forming ability) observed: 63.55%

Quick note, Reduced relative colony forming efficiency, A549 (% inhibition of colony forming ability) for TGGGACAGGGTGCACGGGCG (antisense dT*dG*dG*dG*dA*dC*dA*dG*dG*dG*dT*dG*dC*dA*dC*dG*dG*dG*dC*dG) [AS-II-130-20] landed at 86.48%

GGTTTTCTCTCAGCAGCGGC (antisense dG*dG*dT*dT*dT*dT*dC*dT*dC*dT*dC*dA*dG*dC*dA*dG*dC*dG*dG*dC) [AS-II-404-20] has a reported Reduced relative colony forming efficiency, A549 (% inhibition of colony forming ability) of 52.17%
